The origin of these recorded values is the RNAGym collection of RNA variant scans (doi:10.7554/elife.80360).

B1: HDV Ribozyme (parent)
chain: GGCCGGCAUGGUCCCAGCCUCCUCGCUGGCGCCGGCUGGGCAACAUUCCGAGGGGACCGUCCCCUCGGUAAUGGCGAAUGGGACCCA

variants of: B1; assay: self-cleavage, relative activity (ratio to wild type); higher = more cleavage; co-transcriptional
Classify as follows. Reported self-cleavage greater than or equal to 0.1: label 1. Reported self-cleavage below: label 0.

- mutation-descriptor: "G34U G82A"
  answer-label: "label 1"
- mutation-descriptor: "G25U C66U"
  answer-label: "label 1"
- mutation-descriptor: "U12C C18A"
  answer-label: "label 0"
- mutation-descriptor: "C48G A77U"
  answer-label: "label 1"
- mutation-descriptor: "G35U C44U"
  answer-label: "label 1"
- mutation-descriptor: "G28A C86U"
  answer-label: "label 0"
- mutation-descriptor: "C4U G10A"
  answer-label: "label 1"
- mutation-descriptor: "U23C G81A"
  answer-label: "label 1"

Could you tell me if the measured self-cleavage of G6C G29U reaches 0.1 or more? label 1

Please indicate if the recorded self-cleavage for A83C C84U meets or exceeds 0.1. label 1

# check: self-cleavage of C19G G82C is greater than or equal to 0.1 label 0
